# subject-of-test: Recombinant human Cbl-b (aa 36-427) (Homo sapiens, UniProt Q13191)
# Sequence (Q13191 36-427): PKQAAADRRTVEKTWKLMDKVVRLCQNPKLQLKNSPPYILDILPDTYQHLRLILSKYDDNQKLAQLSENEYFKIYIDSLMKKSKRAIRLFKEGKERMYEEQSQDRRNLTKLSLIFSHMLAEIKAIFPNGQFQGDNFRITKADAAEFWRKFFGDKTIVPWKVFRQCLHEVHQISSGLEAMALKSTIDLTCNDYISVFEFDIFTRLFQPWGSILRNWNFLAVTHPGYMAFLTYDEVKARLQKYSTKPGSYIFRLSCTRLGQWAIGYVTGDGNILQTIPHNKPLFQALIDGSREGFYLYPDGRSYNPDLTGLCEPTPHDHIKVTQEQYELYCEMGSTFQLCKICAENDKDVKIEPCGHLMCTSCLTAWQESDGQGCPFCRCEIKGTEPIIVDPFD
# experiment-summary: Cbl-b Biochemical Assay (TR-FRET)
# study-conditions: read-out: TR-FRET hCbl-b IC50
assay-endpoint: IC50

The following compounds have reported results that may help.
> print(dat)
                              smiles.record                           subject.of.test  assay.endpoint  reported.result
1  Cn1cnnc1-c1cc(F)ccc1-c1cccc(-c2nc3ccccc3o2)c1  Recombinant human Cbl-b (aa 36-427) (Homo sapiens, UniProt Q13191)            IC50      10 to 50 µM
2  Cn1cnnc1-c1cc(F)ccc1-c1cccc(-c2nc3cc(CNC[C@@H]4CCC(=O)N4)cc(C(F)(F)F)c3o2)c1  Recombinant human Cbl-b (aa 36-427) (Homo sapiens, UniProt Q13191)            IC50         < 0.2 µM

Result for `Cn1cnnc1-c1cc(F)ccc1-c1cccc(-c2nc3cc(CNCC4COC4)cc(C(F)(F)F)c3o2)c1` , tested on Recombinant human Cbl-b (aa 36-427) (Homo sapiens, UniProt Q13191), IC50: < 0.2 µM

Result for `COCCNCc1cc(C)c2oc(-c3cccc(-c4ccc(F)cc4-c4nncn4C)c3)nc2c1` , tested on Recombinant human Cbl-b (aa 36-427) (Homo sapiens, UniProt Q13191), IC50: < 0.2 µM

====

Recorded pEC50 values for a group of molecules are listed next.
# Tested on: Jurkat (clone E6-1) cells with NFAT luciferase reporter
# experiment-summary: Jurkat reporter assay (NFAT Luciferase)
# Assay type: cell-based
# study-conditions: Homo sapiens; Jurkat NFAT luciferase reporter cells, anti-CD3 stimulation, 6 hr; read-out: Jurkat NFAT EC50
pEC50: −log10 of the molar value.

The following molecules have reported results that may help.
> print(dat)
                              smiles.record  reported.result
1  Cn1cnnc1-c1cc(F)ccc1-c1cccc(-c2nc3cc(CN[C@H]4CCC[C@@H]4O)cc(C(F)(F)F)c3[nH]2)c1     6.00 to 6.70
2  C[C@H]1CCCN(Cc2cc(C(F)(F)F)c3oc(-c4cccc(-c5ccc(F)cc5-c5nncn5C)c4)nc3c2)C1     6.00 to 6.70
3  C[C@H](O)CNCc1cc(F)c2oc(-c3cccc(-c4ccc(F)cc4-c4nncn4C)c3)nc2c1           > 6.70
4  COc1cc(CNCC2(O)CCC2)cc2nc(-c3cccc(-c4ccc(F)cc4-c4nncn4C)c3)oc12           > 6.70

Briefly, pEC50 measured for `CC(C)CCNCc1cc(C(F)(F)F)c2oc(-c3cccc(-c4ccc(F)cc4-c4nncn4C)c3)nc2c1` : > 6.70

Briefly, pEC50 measured for `COc1cc(CN[C@@H](C)C2CCC2)cc2nc(-c3cccc(-c4ccc(F)cc4-c4nncn4C)c3)oc12` : > 6.70

Briefly, pEC50 measured for `Cn1cnnc1-c1cc(C#N)ccc1-c1cc(-c2nc3cc(CN4C[C@@H]5C[C@H]4CO5)cc(F)c3o2)nc(C2CC2)c1` : 5.00 to 6.00

Briefly, pEC50 measured for `Cn1cnnc1-c1cc(F)ccc1-c1cccc(-c2nc3cc(CNCC4(O)CCC4)cc(C(F)(F)F)c3[nH]2)c1` : 6.00 to 6.70

Briefly, pEC50 measured for `COC1(CN[C@H](C)c2cc(F)c3oc(-c4cc(-c5ccc(F)cc5-c5nncn5C)cc(C5CC5)n4)nc3c2)CCC1` : 5.00 to 6.00

====

# Test system: Jurkat (clone E6-1) cells with NFAT luciferase reporter
# experiment-summary: Jurkat reporter assay (NFAT Luciferase)
# Assay type: cell-based
# study-conditions: Homo sapiens; Jurkat NFAT luciferase reporter cells, anti-CD3 stimulation, 6 hr; read-out: Jurkat NFAT EC50
pEC50: −log10 of the molar value.
Recorded pEC50 values for a group of molecules are listed next.

The following molecules have reported results that may help.
> print(dat)
                                   molecule  assay.endpoint  reported.result
1  Cn1cnnc1-c1cc(F)ccc1-c1cccc(-c2nc3cc(CNC4CCCC4)cc(C(F)(F)F)c3o2)c1 [DS-2]           pEC50           > 6.70
2  COC1(CNC2(c3cc(F)c4oc(-c5cc(-c6ccc(F)cc6-c6nncn6C)cc(C6CC6)n5)nc4c3)CC2)CCC1 [AGO-2]           pEC50     6.00 to 6.70
3  Cn1cnnc1-c1cc(F)ccc1-c1cccc(-c2nc3cc(CN[C@@H]4CCC[C@@H]4O)c(F)c(F)c3o2)c1 [HX-8]           pEC50           > 6.70

Switching to the query record.
Briefly, pEC50 measured for Cn1cnnc1-c1cc(F)ccc1-c1cc(-c2nc3cc(CNC(C)(C)C4CCC4)c(F)c(F)c3o2)nc(C2CC2)c1 [AGD-1] : 5.00 to 6.00

====

# Test system: Jurkat (clone E6-1) cells with NFAT luciferase reporter
# experiment-summary: Jurkat reporter assay (NFAT Luciferase)
# Format: cell-based
# study-conditions: Homo sapiens; Jurkat NFAT luciferase reporter cells, anti-CD3 stimulation, 6 hr; read-out: Jurkat NFAT EC50
assay-endpoint: EC50

> print(dat)
                                   compound   reported.result
1  Cn1cnnc1-c1cc(F)ccc1-c1cccc(-c2nc3cc(CNCC4(O)CCC4)cc(C4CC4)c3o2)c1          < 200 nM
2  COc1cc(CNCCC2CCC2)cc2nc(-c3cccc(-c4ccc(F)cc4-c4nncn4C)c3)oc12    200 to 1000 nM
3  COc1cc(CN[C@@H]2CCC[C@@]2(C)O)cc2nc(-c3cccc(-c4ccc(F)cc4-c4nncn4C)c3)oc12  1000 to 10000 nM

Briefly, EC50 measured for `Cn1cnnc1-c1cc(F)ccc1-c1cccc(-c2nc3cc(CN4CO[C@H]5CCC[C@H]54)cc(C(F)(F)F)c3o2)c1` : < 200 nM

Briefly, EC50 measured for `COc1cc(CNCC2CCC2)cc2nc(-c3cccc(-c4ccc(F)cc4-c4nncn4C)c3)oc12` : < 200 nM

Briefly, EC50 measured for `Cn1cnnc1-c1cc(F)ccc1-c1cc(-c2nc3cc(CNCC4(O)CCCC4)ccc3o2)nc(C2CC2)c1` : < 200 nM

Briefly, EC50 measured for Cn1cnnc1-c1cc(F)ccc1-c1cccc(-c2nc3cc(CN[C@H]4CC[C@@H]4O)cc(C(F)(F)F)c3o2)c1 (racemic) [ADF-2] : < 200 nM

Briefly, EC50 measured for `Cn1cnnc1-c1cc(F)ccc1-c1cccc(-c2nc3cc(CNCC4(C#N)CCCC4)cc(C(F)(F)F)c3[nH]2)c1` : 200 to 1000 nM

Briefly, EC50 measured for `CCOCCNCc1cc(OC)c2oc(-c3cccc(-c4ccc(F)cc4-c4nncn4C)c3)nc2c1` : 200 to 1000 nM

Briefly, EC50 measured for `COCCNCc1cc(C(F)(F)F)c2oc(-c3cccc(-c4ccc(F)cc4-c4nncn4C)c3)nc2c1` : 200 to 1000 nM

Briefly, EC50 measured for `Cn1cnnc1-c1cc(F)ccc1-c1cccc(-c2nc3cc(CNCCF)cc(C(F)(F)F)c3o2)c1` : 200 to 1000 nM

Briefly, EC50 measured for `Cn1cnnc1-c1cc(F)ccc1-c1cc(-c2nc3cc(CNCC4(O)CCC4)cc(C(F)(F)F)c3o2)cc(C2CC2)c1` : < 200 nM

Briefly, EC50 measured for `Cn1cnnc1-c1cc(F)ccc1-c1cccc(-c2nc3cc(CN[C@H]4CCC[C@@H]4O)cc(C(F)(F)F)c3o2)c1` : < 200 nM

Briefly, EC50 measured for Cn1cnnc1-c1cc(F)ccc1-c1cccc(-c2nc3cc(CN[C@H]4CC[C@@H]4O)cc(C(F)(F)F)c3o2)c1 (single isomer, unassigned) [ADG-1] : < 200 nM

Briefly, EC50 measured for `COCCNCc1cc(OC)c2oc(-c3cccc(-c4ccc(F)cc4-c4nncn4C)c3)nc2c1` : 200 to 1000 nM

====

# subject-of-test: Recombinant human Cbl-b (aa 36-427) (Homo sapiens)
# experiment-summary: Cbl-b Biochemical Assay (TR-FRET)
# study-conditions: read-out: TR-FRET hCbl-b IC50
Recorded IC50 values for a group of compounds are listed next.

> print(dat)
                              smiles.record   reported.result
1  C[C@@H](c1cc(C(F)(F)F)c2oc(-c3cccc(C4(Cc5nncn5C)COC4)c3)nc2c1)N1CCC2(CC2)C1          < 200 nM
2  Cn1cnnc1-c1cc(F)ccc1-c1cccc(-c2nc3cc(CN[C@H]4CCC[C@@H]4O)cc(C(F)(F)F)c3o2)c1          < 200 nM
3  CCNc1cc(-c2ccc(F)cc2-c2nncn2C)cc(-c2nc3cc(C(=O)OC)cc(C(F)(F)F)c3o2)n1  1000 to 10000 nM
4  Cn1cnnc1-c1cc(F)ccc1-c1cccc(-c2nc3cc(CNCCC4CCCC4)cc(C(F)(F)F)c3o2)c1          < 200 nM
5  Cn1cnnc1-c1cnn(C)c1-c1cccc(-c2nc3cc(CN[C@@H]4CCC[C@H]4O)cc(C(F)(F)F)c3o2)c1  1000 to 10000 nM
6  Cn1cnnc1-c1cc(F)ccc1-c1cccc(-c2nc3cc(CNCC4(O)CC(F)(F)C4)cc(C(F)(F)F)c3o2)c1          < 200 nM

Switching to the query record.
Briefly, IC50 measured for `COCC(C)(C)NCc1cc(C(F)(F)F)c2oc(-c3cccc(-c4ccc(F)cc4-c4nncn4C)c3)nc2c1` : < 200 nM
